Data provenance is ChEMBL document CHEMBL4033644.

The following molecules are shown together with reported IC50 values.
# Test system: Aromatase (Homo sapiens)
# Assay name: Inhibition of aromatase activity in human T47D cells after 24 hrs
Numeric answer only, unit µM assumed.

O=C(/C=C\Nc1ccc(S(=O)(=O)Nc2ccccn2)cc1)c1ccc2c(c1)Nc1ccccc1S2 | 6.7
O=C(/C=C\Nc1ccc(S(=O)(=O)Nc2cnc3ccccc3n2)cc1)c1ccc2c(c1)Nc1ccccc1S2 | 8.9
N=C(N)NS(=O)(=O)c1ccc(N/C=C\C(=O)c2ccc3c(c2)Nc2ccccc2S3)cc1 | 9.67

Now take the following molecule into account.
Check the records and state IC50 for O=C(/C=C\Nc1ccc(S(=O)(=O)Nc2nccs2)cc1)c1ccc2c(c1)Nc1ccccc1S2
5.67

====

# Test system: Aromatase (Homo sapiens, UniProt P11511)
# Sequence (P11511 whole entry): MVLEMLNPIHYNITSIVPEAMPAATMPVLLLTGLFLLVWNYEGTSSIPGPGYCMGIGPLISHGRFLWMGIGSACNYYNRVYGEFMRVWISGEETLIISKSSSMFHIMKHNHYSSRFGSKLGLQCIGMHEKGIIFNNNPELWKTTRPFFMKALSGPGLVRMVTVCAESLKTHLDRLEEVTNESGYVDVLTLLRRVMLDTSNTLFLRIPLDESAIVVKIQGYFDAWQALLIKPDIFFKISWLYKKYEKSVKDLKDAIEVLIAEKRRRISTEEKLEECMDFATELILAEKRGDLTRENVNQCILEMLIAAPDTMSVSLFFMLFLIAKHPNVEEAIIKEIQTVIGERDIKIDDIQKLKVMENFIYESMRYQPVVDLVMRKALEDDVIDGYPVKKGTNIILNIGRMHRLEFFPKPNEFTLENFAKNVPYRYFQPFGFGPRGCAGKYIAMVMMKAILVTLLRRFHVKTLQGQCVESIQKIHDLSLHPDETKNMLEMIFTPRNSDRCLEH
# Assay name: Inhibition of aromatase activity in human T47D cells after 24 hrs
# Type: cell-based
# Study conditions: human, 24 h
Listed next: entries and their corresponding inhibition (INH).
Hi! Could you send only the number? It should be in %, unit omitted.

Examples with their reported inhibition (INH) follow.
N=C(N)NS(=O)(=O)c1ccc(N/C=C\C(=O)c2ccc3c(c2)Nc2ccccc2S3)cc1 | 72.22
Nc1ccc(S(=O)(=O)c2ccc(N/C=C\C(=O)c3ccc4c(c3)Nc3ccccc3S4)cc2)cc1 | 31.92
CC(=O)NS(=O)(=O)c1ccc(N/C=C\C(=O)c2ccc3c(c2)Nc2ccccc2S3)cc1 | 40.52

Provide the reported inhibition (INH) (system: Aromatase (Homo sapiens, UniProt P11511)) for O=C(/C=C\Nc1ccc(S(=O)(=O)Nc2ccccn2)cc1)c1ccc2c(c1)Nc1ccccc1S2
68.86

// fetch inhibition (INH); item: COc1cc(NS(=O)(=O)c2ccc(N/C=C\C(=O)c3ccc4c(c3)Nc3ccccc3S4)cc2)nc(OC)n1 ; system: Aromatase (Homo sapiens, UniProt P11511)
44.94

Specify the recorded inhibition (INH) for O=C(/C=C\Nc1ccc(S(=O)(=O)Nc2nccs2)cc1)c1ccc2c(c1)Nc1ccccc1S2 , system: Aromatase (Homo sapiens, UniProt P11511).
68.32

====

# Test system: Aromatase (Homo sapiens, UniProt P11511)
# Assay name: Inhibition of aromatase activity in human T47D cells after 24 hrs
# Assay type: cell-based
# Study conditions: human, 24 h
Label fulfilled for high-side inhibition (INH) (at or above 30%) and not fulfilled for low-side inhibition (INH) (below it).

NS(=O)(=O)c1ccc(N/C=C\C(=O)c2ccc3c(c2)Nc2ccccc2S3)cc1 | not fulfilled

Can Cc1cc(NS(=O)(=O)c2ccc(N/C=C\C(=O)c3ccc4c(c3)Nc3ccccc3S4)cc2)nc(C)n1 be said to have inhibition (INH) at or above 30%?
fulfilled

Quick check: does O=C(/C=C\Nc1ccc(S(=O)(=O)Nc2cnc3ccccc3n2)cc1)c1ccc2c(c1)Nc1ccccc1S2 have inhibition (INH) greater than or equal to 30%?
fulfilled

Answer whether inhibition (INH) of Cc1cc(C)nc(NS(=O)(=O)c2ccc(N/C=C\C(=O)c3ccc4c(c3)Nc3ccccc3S4)cc2)n1 is greater than or equal to 30%.
fulfilled
